- testProtocol: Kinetic solubility assay
- Format: physicochemical
- cond: 50 mM NaPO4 pH 6.5 buffer, 24 °C, pH 6.5, aqueous buffer, kinetic from dmso stock, 50 mM NaPO4 pH6.5, 2.0% DMSO, ambient temperature, read-out: Solubility LogS, at pH 6.5 (converted)
// solubility at 24 h lookup, one value per entry
Give the value in µM but do not write µM after it.

Study these solved cases before continuing.
CC(C)(C)[S@@+]([O-])N1Cc2cc(C(=O)NCc3ccc4c(c3)OCO4)nc(-c3cccc(-c4cccnc4)c3)c2[C@H]1CCO ... 10
CC(C)NC(=O)N1Cc2cc(C(=O)NCC(F)(F)F)nc(-c3cccc(-c4cc5ccccc5o4)c3)c2[C@H]1CCO ... 6.31

Now for a further compound.
Query: Consider the compound shown here: CC(C)(C)[S@+]([O-])N1Cc2cc(C(=O)NCc3ccccc3F)nc(-c3cccc(-c4cccnc4)c3)c2[C@@H]1CCO What is its recorded solubility at 24 h?
Reply: 6.31

====

- testProtocol: Human microsomal stability
- Assay type: in vitro ADME
- cond: t was 60 minutes
- Protocol: Select compounds described herein were evaluated for structure-activity analyses for anti-plasmodial activity in vitro. For Dd2 EC50 (M), calculations were for n=3. For HepG2 EC50 (M), calculations were for n=1. For the human microsomal stability determination, t was 60 minutes. […]
// Human microsomal stability (%) lookup, one value per entry
Give the value in % but do not write % after it.

CC(C)NC(=O)N1Cc2cc(C(=O)NCC(F)(F)F)nc(-c3cccc(-c4cc5ccccc5o4)c3)c2[C@H]1CCO ... 61.5

Now for a further molecule.
Query: Consider the molecule shown here: CC(C)NC(=O)N1Cc2cc(C(=O)NCC(F)(F)F)nc(-c3cccc(-c4cc5ccccc5o4)c3)c2[C@@H]1CCO What is its recorded Human microsomal stability (%)?
Reply: 62.7

====

- testProtocol: Plasma pharmacokinetics and liver distribution study in female BALB/c mice
- Format: in vivo, mouse
- cond: female, BALB/c, mouse; ip, Dose: 50 mg/kg, plasma; read-out: PK (ip, plasma/liver) Tmax, plasma
measurementType: Tmax (h)
Give the value in h but do not write h after it.

Query: Consider the compound shown here: CC(C)NC(=O)N1Cc2cc(C(=O)NCC(F)(F)F)nc(-c3cccc(-c4cc5ccccc5o4)c3)c2[C@H]1CCO [drawing 328] What is its recorded Tmax?
Reply: 1

====

// AUC(0-inf) lookup, one value per entry
- testProtocol: Plasma pharmacokinetics and liver distribution study in female BALB/c mice
- Type: in vivo, mouse
- cond: female, BALB/c, mouse; po, Dose: 100 mg/kg, plasma; read-out: PK (po, plasma/liver) Area under the curve (AUCinf), plasma
Give the value in µM·h but do not write µM·h after it.

CC(C)(C)[S@@+]([O-])N1Cc2cc(C(=O)NCc3ccc4c(c3)OCO4)nc(-c3cccc(-c4cccnc4)c3)c2[C@H]1CCO [drawing 329] ... 77.1

Query: Consider the compound shown here: CC(C)(C)[S@@+]([O-])N1Cc2cc(C(=O)NCc3ccccc3F)nc(-c3cccc(-c4cccnc4)c3)c2[C@H]1CCO [drawing 330] What is its recorded AUC(0-inf)?
Reply: 36.7

====

- testProtocol: Plasma pharmacokinetics and liver distribution study in female BALB/c mice
- Assay type: in vivo, mouse
- cond: female, BALB/c, mouse; po, Dose: 100 mg/kg, plasma; read-out: PK (po, plasma/liver) t1/2, plasma (converted)
measurementType: half-life (h)
Give the value in h but do not write h after it.

CC(C)(C)[S@@+]([O-])N1Cc2cc(C(=O)NCc3ccc4c(c3)OCO4)nc(-c3cccc(-c4cccnc4)c3)c2[C@H]1CCO [drawing 329] ... 1.1

Now for a further compound.
Query: Consider the compound shown here: CC(C)(C)[S@@+]([O-])N1Cc2cc(C(=O)NCc3ccccc3F)nc(-c3cccc(-c4cccnc4)c3)c2[C@H]1CCO [drawing 330] What is its recorded half-life?
Reply: 2.1

====

- testProtocol: Plasma pharmacokinetics and liver distribution study in female BALB/c mice
- Type: in vivo, mouse
- cond: mouse, plasma, ip; single intraperitoneal dose, 100 mg/kg, female BALB/c mice; read-out: Tmax (plasma)
measurementType: Tmax (h)
Give the value in h but do not write h after it.

CCOC(=O)c1cc2c(c(-c3ccccc3)n1)[C@@H](CCO)N([S@+]([O-])C(C)(C)C)C2 ... 1
CC(C)(C)[S@@+]([O-])N1Cc2cc(C(=O)NCc3ccc4c(c3)OCO4)nc(-c3ccccc3)c2[C@H]1CCO ... 1

Now for a further compound.
Query: Consider the compound shown here: CC(C)(C)[S@@+]([O-])N1Cc2cc(C(=O)NCc3ccccc3F)nc(-c3ccccc3)c2[C@H]1CCO What is its recorded Tmax?
Reply: 1

====

- testProtocol: Plasma pharmacokinetics and liver distribution study in female BALB/c mice
- Format: in vivo, mouse
- cond: female, BALB/c, mouse; po, Dose: 50 mg/kg, plasma; read-out: PK (po, plasma/liver) Area under the curve (AUCinf), plasma
measurementType: AUC(0-inf)
A bare number is not enough; add the unit after it.

Query: Consider the compound shown here: CC(C)NC(=O)N1Cc2cc(C(=O)NCC(F)(F)F)nc(-c3cccc(-c4cc5ccccc5o4)c3)c2[C@H]1CCO [drawing 328] What is its recorded AUC(0-inf)?
Reply: 29.9 µM·h

====

- testProtocol: Plasma pharmacokinetics and liver distribution study in female BALB/c mice
- Assay type: in vivo, mouse
- cond: female, BALB/c, mouse; po, Dose: 100 mg/kg, liver; read-out: PK (po, plasma/liver) t1/2, liver (converted)
// half-life lookup, one value per entry

Query: Consider the molecule shown here: CC(C)(C)[S@@+]([O-])N1Cc2cc(C(=O)NCc3ccc4c(c3)OCO4)nc(-c3cccc(-c4cccnc4)c3)c2[C@H]1CCO [drawing 329] What is its recorded half-life?
Reply: 16.9 h

Query: Consider the molecule shown here: CC(C)(C)[S@@+]([O-])N1Cc2cc(C(=O)NCc3ccccc3F)nc(-c3cccc(-c4cccnc4)c3)c2[C@H]1CCO [drawing 330] What is its recorded half-life?
Reply: 6.4 h

====

// solubility at 24 h lookup, one value per entry
- testProtocol: Kinetic solubility assay
- Type: physicochemical
- cond: 1×PBS pH 7.4 buffer, 24 °C, pH 7.4, aqueous buffer, kinetic from dmso stock, 1×PBS pH7.4, 2.0% DMSO, ambient temperature, read-out: Solubility LogS, at pH 7.4 (converted)
Give the value in µM but do not write µM after it.

CC(C)(C)[S@@+]([O-])N1Cc2cc(C(=O)NCc3ccc4c(c3)OCO4)nc(-c3cccc(-c4cccnc4)c3)c2[C@H]1CCO ... 12.6
CC(C)NC(=O)N1Cc2cc(C(=O)NCC(F)(F)F)nc(-c3cccc(-c4cc5ccccc5o4)c3)c2[C@H]1CCO ... 7.94
CC(C)(C)[S@+]([O-])N1Cc2cc(C(=O)NCc3ccccc3F)nc(-c3cccc(-c4cccnc4)c3)c2[C@@H]1CCO ... 7.94

Query: Consider the molecule shown here: CC(C)NC(=O)N1Cc2cc(C(=O)NCC(F)(F)F)nc(-c3cccc(-c4cc5ccccc5o4)c3)c2[C@@H]1CCO What is its recorded solubility at 24 h?
Reply: 6.31

====

- testProtocol: Plasma pharmacokinetics and liver distribution study in female BALB/c mice
- Type: in vivo, mouse
- cond: female, BALB/c, mouse; po, Dose: 50 mg/kg, liver; read-out: PK (po, plasma/liver) t1/2, liver (converted)
measurementType: half-life (h)
Give the value in h but do not write h after it.

Query: Consider the compound shown here: CC(C)NC(=O)N1Cc2cc(C(=O)NCC(F)(F)F)nc(-c3cccc(-c4cc5ccccc5o4)c3)c2[C@H]1CCO [drawing 328] What is its recorded half-life?
Reply: 3.1

====

// efflux ratio at 90 min lookup, one value per entry
- testProtocol: Caco-2 bi-directional permeability
- Assay type: in vitro ADME
- cond: human, Caco-2, pH 7.4
- Description: To evaluate the bi-directional Caco-2 permeability of compounds 21 and 37, Caco-2 cells were grown in Dulbecco's Modified Eagle Medium (DMEM) (20% Fetal bovine serum (FBS)) until 85-90% confluence. […] Monolayer integrity was monitored by measuring Trans-epithelial electrical resistance (TEER) from day 15. […] TEER values were measured and wells showing TEER values above 230 ohms·cm2 were taken for experiments. […]
The answer should be written as a number, with no unit following it.

CN(C)CC#Cc1cccc(-c2nc(C(=O)NCc3ccc4c(c3)OCO4)cc3c2[C@@H](CCO)N([S@+]([O-])C(C)(C)C)C3)c1 [compound 21] ... 24.9

Now for a further molecule.
Query: Consider the molecule shown here: CN(C)CC#Cc1cccc(-c2nc(C(=O)N[C@@H]3CCN(Cc4ccccc4)C3)cc3c2[C@@H](CCO)N([S@+]([O-])C(C)(C)C)C3)c1 [compound 37] What is its recorded efflux ratio at 90 min?
Reply: 13.2
